The values you see were collected from ChEMBL document CHEMBL1795286.

Test system: Escherichia coli
Assay: Antimicrobial activity against Escherichia coli ATCC 25922 after 18 hrs by twofold agar dilution method
Type: functional
Conditions: ATCC 25922, 18 h, read-out: MIC
Exercise: state measured MIC for each of the compounds provided.

// query Can you look up the measured MIC of C[C@H](CO)[C@H]1CC[C@H]2[C@@H]3CC[C@H]4C[C@@H](NCCCNCCCCN)CC[C@]4(C)[C@H]3CC[C@]12C.Cl.Cl.Cl for me?
// result < 32 mg/L

// query Can you look up the measured MIC of C[C@H](CO)[C@H]1CC[C@H]2[C@@H]3[C@H](O)C[C@H]4C[C@@H](NCCCNCCCCN)CC[C@]4(C)[C@H]3CC[C@]12C.Cl.Cl.Cl for me?
// result < 32 mg/L

// query Can you look up the measured MIC of C[C@H](CO)[C@H]1CC[C@H]2[C@@H]3[C@H](N)C[C@H]4C[C@@H](NCCCNCCCCN)CC[C@]4(C)[C@H]3CC[C@]12C.Cl.Cl.Cl for me?
// result < 32 mg/L

====

Tested on: Moraxella catarrhalis
Test: Antimicrobial activity against Moraxella catarrhalis 25240 after 18 hrs by twofold agar dilution method
Assay type: functional
Conditions: Moraxella catarrhalis, 25240, 18 h; read-out: MIC
test.readout: MIC

// query Can you look up the measured MIC of C[C@H](CO)[C@H]1CC[C@H]2[C@@H]3CC[C@H]4C[C@H](NCCCNCCCCN)CC[C@]4(C)[C@H]3CC[C@]12C.Cl.Cl.Cl for me?
// result < 32 µg/mL

// query Can you look up the measured MIC of C[C@H](CO)[C@H]1CC[C@H]2[C@@H]3CC[C@H]4C[C@H](NCCCNCCCCNCCCN)CC[C@]4(C)[C@H]3CC[C@]12C.Cl.Cl.Cl.Cl for me?
// result < 32 µg/mL

// query Can you look up the measured MIC of C[C@H](CO)[C@H]1CC[C@H]2[C@@H]3CC[C@@H]4C[C@H](NCCCNCCCCNCCCN)CC[C@]4(C)[C@H]3CC[C@]12C.Cl.Cl.Cl.Cl for me?
// result < 32 µg/mL

// query Can you look up the measured MIC of C[C@H](CO)[C@H]1CC[C@H]2[C@@H]3[C@H](O)C[C@H]4C[C@@H](NCCCNCCCCN)CC[C@]4(C)[C@H]3CC[C@]12C.Cl.Cl.Cl for me?
// result < 32 µg/mL

// query Can you look up the measured MIC of C[C@H](CO)[C@H]1CC[C@H]2[C@@H]3CC[C@H]4C[C@@H](NCCCNCCCCNCCCN)CC[C@]4(C)[C@H]3CC[C@]12C.Cl.Cl.Cl.Cl for me?
// result < 32 µg/mL

// query Can you look up the measured MIC of C[C@H](CO)[C@H]1CC[C@H]2[C@@H]3CC[C@H]4C[C@@H](NCCCNCCCCN)CC[C@]4(C)[C@H]3CC[C@]12C.Cl.Cl.Cl for me?
// result 32 µg/mL

// query Can you look up the measured MIC of C[C@H](CO)[C@H]1CC[C@H]2[C@@H]3[C@H](F)C[C@H]4C[C@@H](NCCCNCCCCN)CC[C@]4(C)[C@H]3CC[C@]12C.Cl.Cl.Cl for me?
// result 32 µg/mL

====

System: Salmonella typhimurium
Experiment: Antimicrobial activity against Salmonella typhimurium ATCC 13311 after 18 hrs by twofold agar dilution method
Assay type: functional, Salmonella enterica subsp. enterica serovar Typhimurium
Details: Salmonella enterica, ATCC 13311, 18 h
test.readout: MIC

// query Can you look up the measured MIC of C[C@H](CO)[C@H]1CC[C@H]2[C@@H]3CC[C@H]4C[C@H](NCCCNCCCCN)CC[C@]4(C)[C@H]3CC[C@]12C.Cl.Cl.Cl for me?
// result > 32 µg/mL

// query Can you look up the measured MIC of C[C@H](CO)[C@H]1CC[C@H]2[C@@H]3[C@H](N)C[C@H]4C[C@@H](NCCCNCCCCN)CC[C@]4(C)[C@H]3CC[C@]12C.Cl.Cl.Cl for me?
// result > 32 µg/mL

// query Can you look up the measured MIC of C[C@H](CO)[C@H]1CC[C@H]2[C@@H]3CC[C@@H]4C[C@H](NCCCNCCCCN)CC[C@]4(C)[C@H]3CC[C@]12C.Cl.Cl.Cl for me?
// result > 32 µg/mL

====

Test system: Escherichia coli
Assay: Antimicrobial activity against Escherichia coli ATCC 10536 after 18 hrs by twofold agar dilution method
Assay type: functional
Conditions: ATCC 10536, 18 h, read-out: MIC
test.readout: MIC

// query Notebook entry, Escherichia coli assay: MIC of C[C@H](CO)[C@H]1CC[C@H]2[C@@H]3CC[C@H]4C[C@@H](NCCCNCCCCN)CC[C@]4(C)[C@H]3CC[C@]12C.Cl.Cl.Cl = ?
// result < 32 µg/mL

// query Notebook entry, Escherichia coli assay: MIC of C[C@H](CO)[C@H]1CC[C@H]2[C@@H]3CC[C@@H]4C[C@H](NCCCNCCCCN)CC[C@]4(C)[C@H]3CC[C@]12C.Cl.Cl.Cl = ?
// result < 32 µg/mL

// query Notebook entry, Escherichia coli assay: MIC of C[C@H](CO)[C@H]1CC[C@H]2[C@@H]3CC[C@H]4C[C@@H](NCCCNCCCCNCCCN)CC[C@]4(C)[C@H]3CC[C@]12C.Cl.Cl.Cl.Cl = ?
// result < 32 µg/mL

// query Notebook entry, Escherichia coli assay: MIC of C[C@H](CO)[C@H]1CC[C@H]2[C@@H]3CC[C@H]4C[C@H](NCCCNCCCCNCCCN)CC[C@]4(C)[C@H]3CC[C@]12C.Cl.Cl.Cl.Cl = ?
// result < 32 µg/mL

// query Notebook entry, Escherichia coli assay: MIC of C[C@H](CO)[C@H]1CC[C@H]2[C@@H]3CC[C@@H]4C[C@@H](NCCCNCCCCNCCCN)CC[C@]4(C)[C@H]3CC[C@]12C.Cl.Cl.Cl.Cl = ?
// result 32 µg/mL

// query Notebook entry, Escherichia coli assay: MIC of C[C@H](CO)[C@H]1CC[C@H]2[C@@H]3CC[C@H]4C[C@H](NCCCNCCCCN)CC[C@]4(C)[C@H]3CC[C@]12C.Cl.Cl.Cl = ?
// result 32 µg/mL

====

Exercise: state measured MIC for each of the compounds provided.
System: Bacillus cereus
Test: Antimicrobial activity against Bacillus cereus ATCC 27348 after 18 hrs by twofold agar dilution method
Type: functional
Conditions: ATCC 27348, 18 h, read-out: MIC

// query Notebook entry, Bacillus cereus assay: MIC of C[C@H](CO)[C@H]1CC[C@H]2[C@@H]3CC[C@H]4C[C@@H](NCCCNCCCCNCCCN)CC[C@]4(C)[C@H]3CC[C@]12C.Cl.Cl.Cl.Cl = ?
// result < 32 µg/mL

// query Notebook entry, Bacillus cereus assay: MIC of C[C@H](CO)[C@H]1CC[C@H]2[C@@H]3CC[C@H]4C[C@H](NCCCNCCCCNCCCN)CC[C@]4(C)[C@H]3CC[C@]12C.Cl.Cl.Cl.Cl = ?
// result < 32 µg/mL

// query Notebook entry, Bacillus cereus assay: MIC of C[C@H](CO)[C@H]1CC[C@H]2[C@@H]3CC[C@@H]4C[C@@H](NCCCNCCCCNCCCN)CC[C@]4(C)[C@H]3CC[C@]12C.Cl.Cl.Cl.Cl = ?
// result < 32 µg/mL

// query Notebook entry, Bacillus cereus assay: MIC of C[C@H](CO)[C@H]1CC[C@H]2[C@@H]3[C@H](N)C[C@H]4C[C@@H](NCCCNCCCCN)CC[C@]4(C)[C@H]3CC[C@]12C.Cl.Cl.Cl = ?
// result < 32 µg/mL

// query Notebook entry, Bacillus cereus assay: MIC of C[C@H](CO)[C@H]1CC[C@H]2[C@@H]3CC[C@@H]4C[C@@H](NCCCNCCCCN)CC[C@]4(C)[C@H]3CC[C@]12C.Cl.Cl.Cl = ?
// result 32 µg/mL

====

Tested on: Escherichia coli
Assay: Antimicrobial activity against Escherichia coli 3190Y after 18 hrs by twofold agar dilution method
Type: functional
test.readout: MIC

// query Notebook entry, Escherichia coli assay: MIC of C[C@H](CO)[C@H]1CC[C@H]2[C@@H]3[C@H](N)C[C@H]4C[C@@H](NCCCNCCCCN)CC[C@]4(C)[C@H]3CC[C@]12C.Cl.Cl.Cl = ?
// result > 32 mg/L

// query Notebook entry, Escherichia coli assay: MIC of C[C@H](CO)[C@H]1CC[C@H]2[C@@H]3CC[C@@H]4C[C@H](NCCCNCCCCNCCCN)CC[C@]4(C)[C@H]3CC[C@]12C.Cl.Cl.Cl.Cl = ?
// result > 32 mg/L

// query Notebook entry, Escherichia coli assay: MIC of C[C@H](CO)[C@H]1CC[C@H]2[C@@H]3CC[C@H]4C[C@H](NCCCNCCCCN)CC[C@]4(C)[C@H]3CC[C@]12C.Cl.Cl.Cl = ?
// result > 32 mg/L
